# testedTarget: T1, recombinant human EGFR extracellular domain with 6xHis (human, UniProt P00533 25-645)
# T1 construct: In-house produced; also called 6xHis EGFR ECD; soluble human EGFR ECD; not shown: 6xHis tag
# protocolSummary: SPR competition, competitor 1261
Assignment: determine reported % inhibition for the given binders.
Numbers only, in %.

antibody 1308 (antibody, human IgG1, kappa, V domains shown, Chimeric IgG1 kappa) VH: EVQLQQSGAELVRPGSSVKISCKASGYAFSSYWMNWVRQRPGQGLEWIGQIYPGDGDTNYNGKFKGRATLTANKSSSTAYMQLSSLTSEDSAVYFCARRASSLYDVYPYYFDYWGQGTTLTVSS VL: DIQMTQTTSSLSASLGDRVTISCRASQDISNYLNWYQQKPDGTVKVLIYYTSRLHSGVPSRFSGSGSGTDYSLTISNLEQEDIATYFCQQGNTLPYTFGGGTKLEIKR :: -9

Request: Provide one value: measured % inhibition of antibody 992 (antibody, human IgG1, kappa, V domains shown, Chimeric mouse/human IgG1 kappa; the VL entry includes the human kappa constant region) VH: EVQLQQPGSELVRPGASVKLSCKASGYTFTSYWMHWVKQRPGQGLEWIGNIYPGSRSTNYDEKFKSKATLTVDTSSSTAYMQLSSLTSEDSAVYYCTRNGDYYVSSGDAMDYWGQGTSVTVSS VL: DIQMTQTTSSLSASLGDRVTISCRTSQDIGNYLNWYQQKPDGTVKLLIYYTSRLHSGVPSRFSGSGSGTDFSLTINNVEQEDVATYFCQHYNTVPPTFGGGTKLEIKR
Result: -13

Source: patent US20110135636A1
